assay: Pharmacokinetic study in rats, plasma (LC/MS/MS, non-compartmental); format: in vivo, rat; conditions: rat, plasma, ip, 2.5 mg/kg, rat plasma, EMD386088 2.5 mg/kg i.p. alone; read-out: t1/2
Observable: half-life

Substance Smiles | Reported Value
Cc1[nH]c2ccc(Cl)cc2c1C1=CCNCC1.Cl | 1.12 h

---

experiment: Pharmacokinetic study in rats, plasma (LC/MS/MS, non-compartmental); format: in vivo, rat; settings: rat, plasma, ip, 5 mg/kg, rat plasma, EMD386088 5 mg/kg i.p. alone

Substance Smiles | Unit Abbreviation | CL/F
Cc1[nH]c2ccc(Cl)cc2c1C1=CCNCC1.Cl | mL/min/kg | 1040
